# study-target: T1, recombinant human PD-1 Fc chimera (human, UniProt Q15116 25-167)
# T1 construct: Bought protein; also called human PD-1-huFc; huPD-1-Fc; not shown: human Fc
# T1 sequence (Q15116 25-167 limits assumed, change not shown): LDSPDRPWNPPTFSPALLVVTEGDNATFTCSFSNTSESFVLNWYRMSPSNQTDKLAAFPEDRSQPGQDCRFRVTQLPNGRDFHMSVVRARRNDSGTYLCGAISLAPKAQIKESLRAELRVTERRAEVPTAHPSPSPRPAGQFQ
# protocol-summary: HTRF inhibition; biotinylated PD-L2-Fc vs Eu-cryptate PD-1-Fc
measure-name: IC50 (nM)

Recorded results for 2 binders are shown here.
Humabody® 1.13 (VHH, human VH single domain antibody) VHH: EVQLLESGGGLVKPGGSLRLSCAASGFTFSDYTMTWMRQAPGKGLEWVSYISTGGTIKYYTDSVKGRFTISRDNAKNSLYLQMNSLRADDTAVYYCAREAPLRLGESPHDAFDIWGQGTMVTVSS; 10
Humabody® 1.1 (VHH, human VH single domain antibody; also called VH single domain antibody 1.1; clone 1.1) VHH: QVQLVESGGGLVKPGGSLRLSCAASGFTFSDYTMTWMRQAPGKGLEWVSYISTGGTIKYYTDSVKGRFTISRDNAKNSLYLQMNSLRADDTAVYYCAREAPLRLGESPHDAFDIWGQGTMVTVSS; 4.9

A: Humabody® 1.5 (VHH, human VH single domain antibody) VHH: EVQLVESGGGLVKPGGSLRLSCAASGFTFSDYTMTWMRQAPGKGLEWVSYISTGGNTKYYTDSVKGRFTISRDNAKNSLYLQMNSLRADDTAVYYCAREAPLRLGESPHDAFDIWGQGTMVTVSS
B: Humabody® 1.9 (VHH, human VH single domain antibody) VHH: QVQLVESGGGLVKPGGSLRLSCAASGFTFGDYTMTWMRQAPGKGLEWVSYISTGGTIKYYTDSVKGRFTISRDNAKNSLYLQMDSLRADDTAVYYCAREAPLRLGESPHDAFDIWGQGTMVTVSS
C: Humabody® 1.4 (VHH, human VH single domain antibody) VHH: QVQLVESGGGLVKPGGSLRLSCAASGFTFSDYYMIWMRQAPGKGLEWVSYISGGGTTKYYTDSVKGRFTISRDNAKNSLYLQMNSLRADDTAVYYCAREAPLRLGETPHDAFDIWGQGTMVTVSS
D: Humabody® 1.2 (VHH, human VH single domain antibody) VHH: EVQLLESGGGLVKPGGSLRLSCAASGFTFSDYTMTWMRQAPGKGLEWVSYISTGGSIKYYTDSVKGRFTISRDNAKNSLYLQMNSLRADDTAVYYCAREAPLRLGESPHDAFDIWGQGTMVTVSS
INPUT: Parameters: sort_field (IC50), sort_dir (desc). Write the labels out in the order the request specifies.
OUTPUT: D, A, C, B
